# assayed target: UGT2B7 (Homo sapiens)
# Sequence (P16662 24-529): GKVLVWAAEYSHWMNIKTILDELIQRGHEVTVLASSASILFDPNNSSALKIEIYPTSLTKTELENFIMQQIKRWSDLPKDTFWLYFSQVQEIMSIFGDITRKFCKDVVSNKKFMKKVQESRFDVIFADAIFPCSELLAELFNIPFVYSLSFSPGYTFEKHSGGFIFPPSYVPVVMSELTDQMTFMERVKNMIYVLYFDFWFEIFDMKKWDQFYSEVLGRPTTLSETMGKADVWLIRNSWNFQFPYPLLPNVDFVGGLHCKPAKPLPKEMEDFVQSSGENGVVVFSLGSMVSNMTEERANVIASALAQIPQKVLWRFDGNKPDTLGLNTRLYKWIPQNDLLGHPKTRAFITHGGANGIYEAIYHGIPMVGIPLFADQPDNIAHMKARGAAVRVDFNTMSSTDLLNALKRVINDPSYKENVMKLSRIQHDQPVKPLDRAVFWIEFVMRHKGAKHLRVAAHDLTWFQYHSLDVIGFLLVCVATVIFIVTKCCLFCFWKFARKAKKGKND
# protocol summary: Kinetics of NAF enantiomer glucuronidation by recombinant UGT2B7
# Assay type: in vitro ADME
# Design: purchased BD Gentest
endpoint: Kinetics type

[
  {
    "molecule": "COc1ccccc1N1CCN(CC(COc2cccc3ccccc23)OC2OC(C(=O)O)C(O)C(O)C2O)CC1 (stereo not drawn) [S(-)-NAF-G]",
    "assayed target": "UGT2B7 (Homo sapiens)",
    "observed": "Substrate inhibition"
  },
  {
    "molecule": "COc1ccccc1N1CCN(CC(COc2cccc3ccccc23)OC2OC(C(=O)O)C(O)C(O)C2O)CC1 (stereo not drawn) [R(+)-NAF-G]",
    "assayed target": "UGT2B7 (Homo sapiens)",
    "observed": "Substrate inhibition"
  }
]

---

# assayed target: UGT1A7 (Homo sapiens)
# Construct: purchased BD Gentest
# Sequence (Q9HAW7 26-530): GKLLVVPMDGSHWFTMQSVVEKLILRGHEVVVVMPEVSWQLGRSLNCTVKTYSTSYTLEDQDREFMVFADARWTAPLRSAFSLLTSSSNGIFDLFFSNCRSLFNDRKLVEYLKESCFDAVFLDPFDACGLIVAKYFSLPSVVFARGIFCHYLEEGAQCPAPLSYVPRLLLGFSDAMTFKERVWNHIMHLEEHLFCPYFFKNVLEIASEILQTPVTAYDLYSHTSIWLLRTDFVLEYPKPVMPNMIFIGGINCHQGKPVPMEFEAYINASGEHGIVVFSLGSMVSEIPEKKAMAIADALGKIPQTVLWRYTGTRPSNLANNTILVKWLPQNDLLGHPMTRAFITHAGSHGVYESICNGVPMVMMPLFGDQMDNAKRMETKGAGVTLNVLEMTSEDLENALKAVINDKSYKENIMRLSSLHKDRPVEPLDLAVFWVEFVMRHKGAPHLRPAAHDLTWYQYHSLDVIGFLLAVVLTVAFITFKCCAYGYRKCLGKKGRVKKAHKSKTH
# protocol summary: Inhibition screening of recombinant UGTs by NAF enantiomers, UGT1A7 (4-MU)
# Format: in vitro ADME
# conditions: recombinant UGT1A7, probe 4-MU, 100 μM NAF enantiomer, read-out: Inhibition of 4-MU-G formation
endpoint: inhibition at 100 μM

[
  {
    "molecule": "COc1ccccc1N1CCN(C[C@H](O)COc2cccc3ccccc23)CC1 [S(-)-NAF]",
    "inhibition at 100 μM": "> 75%"
  }
]

// switching to the query molecule
Fill in inhibition at 100 μM for record COc1ccccc1N1CCN(C[C@@H](O)COc2cccc3ccccc23)CC1 [R(+)-NAF] > 75%
